This collection of values is drawn from paper PMC11469372.

- Assay system: PkSEY1 (Plasmodium knowlesi SEY1) (Plasmodium knowlesi)
- Construct: Full-length, His-tagged (recombinant)
- Sequence (B3LAJ9 whole entry): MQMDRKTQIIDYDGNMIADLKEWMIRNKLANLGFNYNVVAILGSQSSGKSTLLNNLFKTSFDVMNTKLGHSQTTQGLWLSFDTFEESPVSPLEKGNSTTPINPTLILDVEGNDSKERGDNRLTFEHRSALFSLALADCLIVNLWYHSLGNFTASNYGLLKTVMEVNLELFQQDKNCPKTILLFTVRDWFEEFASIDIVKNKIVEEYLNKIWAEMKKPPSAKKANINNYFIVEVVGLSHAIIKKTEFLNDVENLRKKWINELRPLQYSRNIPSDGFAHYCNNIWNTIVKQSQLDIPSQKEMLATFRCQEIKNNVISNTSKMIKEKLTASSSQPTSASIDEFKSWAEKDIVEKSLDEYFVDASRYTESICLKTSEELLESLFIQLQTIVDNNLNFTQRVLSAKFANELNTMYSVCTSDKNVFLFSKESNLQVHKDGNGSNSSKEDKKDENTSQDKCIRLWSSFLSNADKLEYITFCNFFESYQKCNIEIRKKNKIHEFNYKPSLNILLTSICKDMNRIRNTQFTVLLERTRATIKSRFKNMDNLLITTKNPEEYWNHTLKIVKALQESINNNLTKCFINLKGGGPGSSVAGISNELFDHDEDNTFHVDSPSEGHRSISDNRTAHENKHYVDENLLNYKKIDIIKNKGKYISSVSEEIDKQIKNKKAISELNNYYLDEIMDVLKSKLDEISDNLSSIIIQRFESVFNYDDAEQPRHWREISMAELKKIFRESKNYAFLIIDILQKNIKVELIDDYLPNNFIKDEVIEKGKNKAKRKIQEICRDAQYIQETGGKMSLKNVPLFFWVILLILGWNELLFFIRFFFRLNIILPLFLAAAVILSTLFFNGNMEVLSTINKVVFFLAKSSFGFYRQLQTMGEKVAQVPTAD
- Experiment summary: surface plasmon resonance (Biacore […], NTA chip)
- Assay type: binding
Property name: Kd (µM)
# output: bare number, implied unit µM

GET /value?item= `CC1(C)c2nc(-c3ccc(F)cc3)c(Nc3ccc(Cl)cc3)n2CCN1C(=O)CN` &field=Kd returns 144

---

- Assay system: HsFLOT1 (Homo sapiens, UniProt O75955)
- Sequence (O75955 1-427): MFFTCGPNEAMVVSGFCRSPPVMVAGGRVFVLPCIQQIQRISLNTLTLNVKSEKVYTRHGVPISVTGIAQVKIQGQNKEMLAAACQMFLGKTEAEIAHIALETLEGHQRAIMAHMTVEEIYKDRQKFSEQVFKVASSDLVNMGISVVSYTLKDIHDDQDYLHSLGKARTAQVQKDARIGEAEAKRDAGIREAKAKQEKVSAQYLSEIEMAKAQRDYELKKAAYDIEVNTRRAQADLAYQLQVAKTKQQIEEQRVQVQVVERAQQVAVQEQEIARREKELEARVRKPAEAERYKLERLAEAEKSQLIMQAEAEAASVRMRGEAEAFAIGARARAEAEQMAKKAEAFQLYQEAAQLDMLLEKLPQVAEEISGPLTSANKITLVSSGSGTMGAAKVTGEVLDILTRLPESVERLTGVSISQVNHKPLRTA
- Experiment summary: proteomic affinity chromatography with GNF179 beads, competition with free GNF179 (TMT MS/MS), lysate
Property name: Kd (nM)
# output: bare number, implied unit nM

GET /value?item= CC1(C)c2nc(-c3ccc(F)cc3)c(Nc3ccc(Cl)cc3)n2CCN1C(=O)CN [GNF179] &field=Kd returns 340
